Origin of the recorded values: patent US20200024330A1

- TARGET OR SYSTEM: HIV-1 JR-CSF Env F210A (HIV-1 JR-CSF) (UniProt P20871)
- ASSAY REMARKS: cell-based or functional assay
MEASUREMENT NAME: Fold IC50 increase relative to wild-type (fold)

binder="PGT-130 (antibody, V domains shown) VH: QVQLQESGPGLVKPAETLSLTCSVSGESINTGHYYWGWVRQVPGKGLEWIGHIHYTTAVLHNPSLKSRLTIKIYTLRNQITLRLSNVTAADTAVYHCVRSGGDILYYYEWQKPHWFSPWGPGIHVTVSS VL: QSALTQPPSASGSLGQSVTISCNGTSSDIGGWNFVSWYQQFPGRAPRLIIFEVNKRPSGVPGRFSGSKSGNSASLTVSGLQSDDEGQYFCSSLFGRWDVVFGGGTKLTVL" quantitative_readout=1.7
binder="PGT-135 (antibody, V domains shown) VH: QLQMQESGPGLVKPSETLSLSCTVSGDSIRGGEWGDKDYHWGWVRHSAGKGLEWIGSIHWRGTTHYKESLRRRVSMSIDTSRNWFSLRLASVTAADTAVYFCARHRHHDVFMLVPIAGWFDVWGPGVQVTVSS VL: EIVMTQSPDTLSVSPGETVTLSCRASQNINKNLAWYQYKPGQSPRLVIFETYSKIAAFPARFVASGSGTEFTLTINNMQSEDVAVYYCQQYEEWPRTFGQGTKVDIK" quantitative_readout=1.3
binder="PGT-127 (antibody, V domains shown) VH: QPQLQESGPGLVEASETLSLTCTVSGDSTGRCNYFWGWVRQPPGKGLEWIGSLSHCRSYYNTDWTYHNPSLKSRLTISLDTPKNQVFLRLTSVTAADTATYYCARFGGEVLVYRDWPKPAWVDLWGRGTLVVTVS VL: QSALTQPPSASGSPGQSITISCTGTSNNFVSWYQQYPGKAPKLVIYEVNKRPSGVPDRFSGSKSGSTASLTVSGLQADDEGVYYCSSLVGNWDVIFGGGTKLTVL" quantitative_readout=0.8
binder="PGT-123 (antibody, V domains shown) VH: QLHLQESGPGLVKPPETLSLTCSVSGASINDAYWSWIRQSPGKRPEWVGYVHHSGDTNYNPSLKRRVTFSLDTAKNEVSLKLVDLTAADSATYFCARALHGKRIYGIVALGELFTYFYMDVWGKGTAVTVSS VL: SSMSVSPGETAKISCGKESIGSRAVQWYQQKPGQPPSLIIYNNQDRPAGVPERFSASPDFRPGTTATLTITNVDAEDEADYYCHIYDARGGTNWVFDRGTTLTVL" quantitative_readout=2.8
binder="PGT-131 (antibody, V domains shown) VH: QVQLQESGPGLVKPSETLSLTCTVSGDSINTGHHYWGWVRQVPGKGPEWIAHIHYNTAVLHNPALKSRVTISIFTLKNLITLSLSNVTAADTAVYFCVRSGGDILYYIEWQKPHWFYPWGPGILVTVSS VL: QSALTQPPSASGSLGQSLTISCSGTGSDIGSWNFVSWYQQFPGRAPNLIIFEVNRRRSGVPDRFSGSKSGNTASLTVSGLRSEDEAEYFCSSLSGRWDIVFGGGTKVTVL" quantitative_readout=1
